- Tgt: APE1 (Homo sapiens, UniProt P27695)
- Construct: made in house
- Sequence (P27695 whole entry): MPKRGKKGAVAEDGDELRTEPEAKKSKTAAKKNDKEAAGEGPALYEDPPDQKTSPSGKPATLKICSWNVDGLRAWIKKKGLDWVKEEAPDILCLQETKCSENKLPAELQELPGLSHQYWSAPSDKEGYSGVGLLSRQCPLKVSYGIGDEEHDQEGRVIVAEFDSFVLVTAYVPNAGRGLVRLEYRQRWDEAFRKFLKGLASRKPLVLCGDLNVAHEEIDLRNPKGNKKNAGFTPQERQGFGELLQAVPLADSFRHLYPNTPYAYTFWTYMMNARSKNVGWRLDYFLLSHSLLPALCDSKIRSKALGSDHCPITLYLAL
- Experimental details: Fluorogenic kinetic qHTS APE1 incision assay (primary screen and retest of cherrypicked samples);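 note: purified APE1 cleaving a fluorophore/dark-quencher labelled 17-mer duplex DNA bearing a tetrahydrofuran AP site, fluorescence rise followed kinetically over the first 2 min, inhibition normalized to controls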
- Assay type: biochemical
- Conditions used: initial quantitative high-throughput screen; read-out: APE1 qHTS IC50
Collected pIC50 values appear next to each entry.
pIC50 (log units): -log10 of the concentration in mol/L.

-- ask # query: pIC50 of entry Cc1c(C(=O)OCC2CCCO2)[nH]c2c1C(=O)CC(c1ccco1)C2 (stereo not shown) [MLS000090966]
-- reply 5.15

-- ask # query: pIC50 of entry O=C(c1cccc(-n2cccc2)c1)N1CCN(S(=O)(=O)c2ccccc2)CC1 [MLS001139594]
-- reply 5.82

-- ask # query: pIC50 of entry CCCCN(C(=O)c1cccc(-n2cccc2)c1)c1c(N)n(Cc2ccccc2)c(=O)[nH]c1=O [MLS001159279]
-- reply 5.57

-- ask # query: pIC50 of entry CCc1cc(CNC(=O)c2ccc(OC3CCN(CCc4ccccc4)CC3)cc2)on1 [MLS001105846]
-- reply 4.92

The origin of these recorded values is paper PMC3479139.
